ASSAY PROTOCOL: clinical;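 also: blood and plasma drug levels in patients quantified by UPLC tandem mass spectrometry, with PK parameters derived by non-compartmental analysis of concentration–time profiles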
CONDITION SET: human, in vivo, 5 mg, Vss
VALUE KIND: Vd (L)
Supply the numeric figure in L, leaving out any unit text.

Lookup: Quick one: Vd of CC(=O)O[C@H]1C(=O)[C@@]2(C)[C@H]([C@H](OC(=O)c3ccccc3)[C@]3(O)C[C@H](OC(=O)[C@H](O)[C@@H](NC(=O)c4ccccc4)c4ccccc4)C(C)=C1C3(C)C)[C@]1(OC(C)=O)CO[C@@H]1C[C@@H]2O [Paclitaxel] ?
Found: 430

---

ASSAY PROTOCOL: clinical
CONDITION SET: human, in vivo, 3 mg, Vz
VALUE KIND: Vd (L)
Could you give me the number in L? Just the number is fine.

Lookup: // Vd lookup, key: CC(=O)O[C@H]1C(=O)[C@@]2(C)[C@H]([C@H](OC(=O)c3ccccc3)[C@]3(O)C[C@H](OC(=O)[C@H](O)[C@@H](NC(=O)c4ccccc4)c4ccccc4)C(C)=C1C3(C)C)[C@]1(OC(C)=O)CO[C@@H]1C[C@@H]2O [Paclitaxel]
Found: 689
